Target: T1, NPR-B (natriuretic peptide receptor B), murine, expressed endogenously on NIH3T3 cells (murine, UniProt Q6VVW5 17-1047)
T1 sequence (looked up): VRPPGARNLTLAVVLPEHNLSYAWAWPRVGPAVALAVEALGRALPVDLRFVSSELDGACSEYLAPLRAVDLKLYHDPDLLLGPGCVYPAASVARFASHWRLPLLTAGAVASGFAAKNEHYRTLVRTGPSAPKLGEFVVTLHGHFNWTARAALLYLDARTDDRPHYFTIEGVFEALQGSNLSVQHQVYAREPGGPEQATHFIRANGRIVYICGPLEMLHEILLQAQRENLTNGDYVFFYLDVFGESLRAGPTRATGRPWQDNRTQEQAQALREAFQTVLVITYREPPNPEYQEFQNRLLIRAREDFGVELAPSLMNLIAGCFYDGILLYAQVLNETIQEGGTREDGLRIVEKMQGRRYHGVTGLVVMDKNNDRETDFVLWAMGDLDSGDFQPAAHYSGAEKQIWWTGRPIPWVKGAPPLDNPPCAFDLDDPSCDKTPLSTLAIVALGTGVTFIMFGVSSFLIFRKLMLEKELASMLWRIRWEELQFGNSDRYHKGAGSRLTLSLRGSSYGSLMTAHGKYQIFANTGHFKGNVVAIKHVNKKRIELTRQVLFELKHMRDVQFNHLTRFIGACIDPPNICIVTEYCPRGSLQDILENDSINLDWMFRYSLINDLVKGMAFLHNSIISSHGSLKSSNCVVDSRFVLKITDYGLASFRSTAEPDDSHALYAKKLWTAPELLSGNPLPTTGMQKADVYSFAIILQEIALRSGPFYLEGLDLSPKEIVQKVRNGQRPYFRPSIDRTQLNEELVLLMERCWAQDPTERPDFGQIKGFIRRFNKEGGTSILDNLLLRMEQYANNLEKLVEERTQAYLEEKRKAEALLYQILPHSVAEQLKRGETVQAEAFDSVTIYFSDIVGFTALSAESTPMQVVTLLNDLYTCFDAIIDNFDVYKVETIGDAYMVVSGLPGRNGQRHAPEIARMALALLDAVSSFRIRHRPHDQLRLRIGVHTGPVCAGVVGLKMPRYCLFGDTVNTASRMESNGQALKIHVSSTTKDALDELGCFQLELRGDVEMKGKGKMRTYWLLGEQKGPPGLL
Assay: cell-based or functional assay
Value kind: cGMP response rel. to 1 uM CNP22; 10 nM peptide, NIH3T3 cells

>>> recorded_result("GLSRGCFSLKLDRIGSMSGLGC [CNP22, K4R, G8S]")
"26 rel. to 1 uM CNP22 (100)"
>>> recorded_result("GLSRSCFGLKLDRIGSMSGLGC [CNP22, K4R, G5S]")
"45 rel. to 1 uM CNP22 (100)"
>>> recorded_result("GLSRGCFGLKLDRIGSVSGLGC [CNP22, K4R, M17V]")
"10 rel. to 1 uM CNP22 (100)"
>>> recorded_result("GLSRGCFGLKLDRIGSMSGVGC [CNP22, K4R, L20V]")
"0.2 rel. to 1 uM CNP22 (100)"
>>> recorded_result("GLSRGCFGLKLDRIGSMSGLSC [CNP22, K4R, G21S]")
"7 rel. to 1 uM CNP22 (100)"
>>> recorded_result("GLSRGCFGLRLDRIGSMSGLGC [CNP22, K4R, K10R]")
"12 rel. to 1 uM CNP22 (100)"
>>> recorded_result("GLSRGCFGLKLDRIGSMSGRGC [CNP22, K4R, L20R]")
"11 rel. to 1 uM CNP22 (100)"
